Consider the following compounds and their measured MIC Staphylococcus aureus (GC 4545) readings.
Tested on: Staphylococcus sp.
protocol: in vitro antibacterial evaluation, MIC by broth dilution
Type: cell-based
condition_parameters: broth dilution, 18 hours at 35° C.

compound	MIC Staphylococcus aureus (GC 4545) (µg/mL)
CC(C)CC(=O)OCC1OC(OC2C(CO)OC(Oc3ccc(CC4NC(=O)C(Cc5ccccc5)NC(=O)CNC(=O)C(CO)NC(=O)C(C(O)C5CNC(=N)N5C5OC(CO)C(O)C(O)C5O)NC(=O)C(C(O)C5CNC(=N)N5)NC4=O)cc3)C(O)C2O)C(O)C(O)C1O (stereo not shown) [Example 283c]	16
N=C1NCC(C(O)C2NC(=O)C(Cc3ccc(OC4OC(CO)C(OC5OC(CO)C(O)C6OC7(OC56)C5CC6CC(C5)CC7C6)C(O)C4O)cc3)NC(=O)C(CC3CCCCC3)NC(=O)CNC(=O)C(CO)NC(=O)C(C(O)C3CNC(=N)N3C3OC(CO)C(O)C(O)C3O)NC2=O)N1 (stereo not shown) [Example 106a]	2
CC(c1ccccc1)C1NC(=O)CNC(=O)C(CO)NC(=O)C(C(O)C2CNC(=N)N2C2OC(CO)C(O)C(O)C2O)NC(=O)C(C(O)C2CNC(=N)N2)NC(=O)C(Cc2ccc(OC3OC(CO)C(OC4OC(COC(=O)NCc5ccccc5)C(O)C(O)C4O)C(O)C3O)cc2)NC1=O (stereo not shown) [Example 257b]	0.5
CC(c1ccccc1)C1NC(=O)CNC(=O)C(CO)NC(=O)C(C(O)C2CNC(=N)N2C2OC(CO)C(O)C(O)C2O)NC(=O)C(C(O)C2CNC(=N)N2)NC(=O)C(Cc2ccc(OC3OC(CO)C(OC4OC(COCC=C(c5ccccc5)c5ccccc5)C(O)C(O)C4O)C(O)C3O)cc2)NC1=O (stereo not shown)	2

----------
Test system: Enterococcus sp.
protocol: in vitro antibacterial evaluation, MIC by broth dilution
Format: cell-based
condition_parameters: broth dilution, 18 hours at 35° C.; strain GC 4554

compound	MIC Enterococcus faecalis (GC 4554)
CC(C)CC(=O)OCC1OC(OC2C(CO)OC(Oc3ccc(CC4NC(=O)C(Cc5ccccc5)NC(=O)CNC(=O)C(CO)NC(=O)C(C(O)C5CNC(=N)N5C5OC(CO)C(O)C(O)C5O)NC(=O)C(C(O)C5CNC(=N)N5)NC4=O)cc3)C(O)C2O)C(O)C(O)C1O (stereo not shown) [Example 283c]	>128 µg/mL
CC(c1ccccc1)C1NC(=O)CNC(=O)C(CO)NC(=O)C(C(O)C2CNC(=N)N2C2OC(CO)C(O)C(O)C2O)NC(=O)C(C(O)C2CNC(=N)N2)NC(=O)C(Cc2ccc(OC3OC(CO)C(OC4OC(CO)C(O)C5OC(c6ccccc6)OC45)C(O)C3O)cc2)NC1=O (single isomer, unassigned) [Example 104b]	0.5 µg/mL
COc1ccc(COCC2OC(OC3C(CO)OC(Oc4ccc(CC5NC(=O)C(C(C)c6ccccc6)NC(=O)CNC(=O)C(CO)NC(=O)C(C(O)C6CNC(=N)N6C6OC(CO)C(O)C(O)C6O)NC(=O)C(C(O)C6CNC(=N)N6)NC5=O)cc4)C(O)C3O)C(O)C(O)C2O)c2ccccc12 (stereo not shown)	16 µg/mL
CC(C)CC1OCC2OC(OC3C(CO)OC(Oc4ccc(CC5NC(=O)C(C(C)c6ccccc6)NC(=O)CNC(=O)C(CO)NC(=O)C(C(O)C6CNC(=N)N6C6OC(CO)C(O)C(O)C6O)NC(=O)C(C(O)C6CNC(=N)N6)NC5=O)cc4)C(O)C3O)C(O)C(O)C2O1 (stereo not shown)	4 µg/mL
Cc1ccc(CC2OCC3OC(OC4C(CO)OC(Oc5ccc(CC6NC(=O)C(C(C)c7ccccc7)NC(=O)CNC(=O)C(CO)NC(=O)C(C(O)C7CNC(=N)N7C7OC(CO)C(O)C(O)C7O)NC(=O)C(C(O)C7CNC(=N)N7)NC6=O)cc5)C(O)C4O)C(O)C(O)C3O2)cc1 (stereo not shown)	2 µg/mL
CC(c1ccccc1)C1NC(=O)CNC(=O)C(CO)NC(=O)C(C(O)C2CNC(=N)N2C2OC(CO)C(O)C(O)C2O)NC(=O)C(C(O)C2CNC(=N)N2)NC(=O)C(Cc2ccc(OC3OC(CO)C(OC4OC5COC(Cc6ccccc6)OC5C(O)C4O)C(O)C3O)cc2)NC1=O (stereo not shown)	2 to 4 µg/mL
CC(c1ccccc1)C1NC(=O)CNC(=O)C(CO)NC(=O)C(C(O)C2CNC(=N)N2C2OC(CO)C(O)C(O)C2O)NC(=O)C(C(O)C2CNC(=N)N2)NC(=O)C(Cc2ccc(OC3OC(CO)C(OC4OC5COC(C67CC8CC(CC(C8)C6)C7)OC5C(O)C4O)C(O)C3O)cc2)NC1=O (stereo not shown)	4 µg/mL
